# targetSystem: GppNp-loaded HIS-KRAS (G12D, aa 1-169) / cRAF RBD (Homo sapiens, UniProt P01116, G12D)
# Construct: GppNp-loaded HIS-KRAS (G12D, aa 1-169)
# Sequence (P01116 1-169 isoform P01116-2 G12D): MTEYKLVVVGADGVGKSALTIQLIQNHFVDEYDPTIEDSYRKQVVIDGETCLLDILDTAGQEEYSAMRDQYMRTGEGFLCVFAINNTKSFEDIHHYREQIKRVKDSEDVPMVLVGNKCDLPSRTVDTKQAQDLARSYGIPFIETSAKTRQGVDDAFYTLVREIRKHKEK
# testDescription: GTP-KRAS and cRAF interaction assay
# Assay type: binding
# testSettings: HTRF, 2 hours at 25° C.
Please go through the items and note down their log10 of IC50.
Give log10 of IC50, with IC50 taken in µM.

Example cases with answers are listed next.
- compound: "C#Cc1c(F)ccc2cc(O)cc(-c3c(C(C)C)cc4c(N5CC6CCC(C5)N6)nc(OCC5(CN6CCOCC6)CC5)nc4c3F)c12 [Compound 106]"
  targetSystem: "GppNp-loaded HIS-KRAS (G12D, aa 1-169) / cRAF RBD (Homo sapiens, UniProt P01116, G12D)"
  log10 of IC50: -2.89
- compound: "C#Cc1cccc2cc(O)cc(-c3c(C#N)cc4c(N5CC6CCC(C5)N6)nc(OCC5(CN6CCOCC6)CC5)nc4c3F)c12 (single isomer, unassigned) [Compound 60B]"
  targetSystem: "GppNp-loaded HIS-KRAS (G12D, aa 1-169) / cRAF RBD (Homo sapiens, UniProt P01116, G12D)"
  log10 of IC50: -1.20
- compound: "C#Cc1cccc2cc(O)cc(-c3ccc4c(N5CC6CCC(C5)N6)nc(OCC5(CN6CCCC6)CC5)nc4c3F)c12 [Compound 116]"
  targetSystem: "GppNp-loaded HIS-KRAS (G12D, aa 1-169) / cRAF RBD (Homo sapiens, UniProt P01116, G12D)"
  log10 of IC50: -0.96
- compound: "C#Cc1cccc2cc(O)cc(-c3ccc4c(N5CC6CCC(C5)N6)nc(OCC5(CN6CCOC[C@H]6C)CC5)nc4c3F)c12 [Compound 115]"
  targetSystem: "GppNp-loaded HIS-KRAS (G12D, aa 1-169) / cRAF RBD (Homo sapiens, UniProt P01116, G12D)"
  log10 of IC50: -0.92
- compound: "C#Cc1cccc2cc(O)cc(-c3ccc4c(N5[C@H]6CN[C@H](C6)[C@H]5CC#N)nc(OCC5(CN6CCOCC6)CC5)nc4c3F)c12 [Compound 128]"
  targetSystem: "GppNp-loaded HIS-KRAS (G12D, aa 1-169) / cRAF RBD (Homo sapiens, UniProt P01116, G12D)"
  log10 of IC50: -0.28
- compound: "C#Cc1cccc2cc(O)cc(-c3cc4nc(OCC5(CN6CCOCC6)CC5)nc(N5CC6CCC(C5)N6)c4cc3Cl)c12 [Compound 57]"
  targetSystem: "GppNp-loaded HIS-KRAS (G12D, aa 1-169) / cRAF RBD (Homo sapiens, UniProt P01116, G12D)"
  log10 of IC50: -0.46

List the reported log10 of IC50 of each compound below.
1. C#Cc1cccc2cc(O)cc(-c3ccc4c(N5CCNCC5CC#N)nc(OCC5(CN6CCOCC6)CC5)nc4c3F)c12 (racemic) [Compound 134]
2. C#Cc1cccc2cc(O)cc(-c3c(F)cc4c(N5CC6CCC(C5)N6)nc(OCC5(CN6CCOCC6)CC5)nc4c3F)c12 [Compound 41]
3. C#Cc1cccc2cc(O)cc(-c3c(CC)cc4c(N5CC6CCC(C5)N6)nc(OCC5(CN6CCOCC6)CC5)nc4c3F)c12 [Compound 49]
4. C#Cc1cccc2cc(O)cc(-c3cc4nc(OCC5(CN6CCOCC6)CC5)nc(N5CC6CCC(C5)N6)c4cc3OC)c12 [Compound 120]
5. Oc1cc(-c2ccc3c(N4CC5CCC(C4)N5)nc(OCC4(CN5CCOCC5)CC4)nc3c2F)c2cccc(F)c2c1 [Compound 50]
6. C#Cc1c(F)ccc2cc(O)cc(-c3c(Cl)cc4c(C5CC6CCC(C5)N6)nc(OC[C@@]56CCCN5C[C@H](F)C6)nc4c3F)c12 (stereo partly shown) [Compound 100]

a:
[-0.12, -0.68, -1.58, -0.51, 0.05, -1.26]
